test name: NCI Yeast Anticancer Drug Screen. Data for the cln2 rad14 strain (AID 165);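 note: 0% = growth equal to vehicle treated cultures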
study conditions: S. cerevisiae cln2 rad14 strain, at 50.0 µM, hits give high values
The panel holds about 79,000 compounds, 15% with a hit somewhere; the sample as a whole holds those more often.
Collected growth inhibition values appear next to each entry.
Please reply with the bare figure in % and do not write the unit itself.

In [3]: df
Out[3]:
                                   molecule       assay_metric  observed_result
0  O=C(O)CP(=S)(S)c1ccccc1 (stereo unspecified)  growth inhibition              2.4
1                   O=[As](O)(O)c1cccc(O)c1  growth inhibition              3.7

Proceeding to the next molecule to report its growth inhibition.
// fetch growth inhibition given entry CCCCOP(=O)(Cc1ccccc1)Oc1ccccc1 (stereo unspecified)
50.4

* * *

Listed below: growth inhibition values for each entry.
test name: NCI Yeast Anticancer Drug Screen. Data for the rad50 strain (AID 155);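 note: 0% = growth of vehicle-only cultures of the same strain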
study conditions: S. cerevisiae rad50 strain growth inhibition; at 50.0 µM; hits give high values
The panel holds about 79,000 compounds, 15% with a hit somewhere; the sample as a whole holds those more often.
A number alone suffices; assume %.

>>> df
                                   compound       assay_metric  observed_result
0  O=[N+]([O-])c1cccc(N=Nc2ccc(N(CCCl)CCCl)cc2)c1  growth inhibition            -23.4
1    OCCCN=Cc1ccccc1O.OCCCN=Cc1ccccc1O.[Cu]  growth inhibition               38
2  CC(=O)Nc1cc([As]=O)ccc1O (configuration not stated)  growth inhibition             29.2
3    COc1cc(C=C2C(=O)NC(=S)NC2=O)cc(OC)c1OC  growth inhibition             5.05
4  CC(=O)[CH-]C(C)=O.O=[N+]([O-])O.[NH-]C1CCCCC1[NH-].[Pt+4] (configuration not stated)  growth inhibition             97.2

Using known records, supply growth inhibition for N#CC1OC1c1cccnc1 (configuration not stated)
3.9

Please report growth inhibition for the following compound: Nc1ccc(Sc2ccc(N)cc2)cc1
15.5

Supply measured growth inhibition of Nc1ccc(C(=O)O)c([As](O)O)c1 in your reply.
-6.95

Consider the compound CC1=C(Cl)C=CP(=O)(Oc2ccccc2)C1 (configuration not stated) . State its measured growth inhibition.
19.5

Given N#CCc1ccccc1.N#CCc1ccccc1.[C-]#[O+].[C-]#[O+].[C-]#[O+].[C-]#[O+].[W] , respond with its growth inhibition.
-10.9

Tell me growth inhibition reported for COc1ccc2c(c1)CCC1C2CCC2(C)C1CCC21CCNP(=O)(N(CCCl)CCCl)O1 (configuration not stated)
72

Given O=C(Nc1ccc(S(=O)(=O)F)cc1)/C(=C\c1ccc([N+](=O)[O-])cc1)c1cccc(Cl)c1 , respond with its growth inhibition.
12.4

* * *

test name: NCI Yeast Anticancer Drug Screen. Data for the cln2 rad14 strain (AID 165);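 note: 0% = growth equal to vehicle treated cultures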
study conditions: S. cerevisiae cln2 rad14 strain, at 50.0 µM
The panel holds about 79,000 compounds, 15% with a hit somewhere; the sample as a whole holds those more often. Calls of active or inactive are those of the source. Cut-off read from the data, not from the text of the source: active = growth inhibition above about 70%; inactive = the rest.
Can you answer with just one of these options? yes (1) (active), no (0) (inactive)

compound	label value
CNCC(C)c1ccccc1OC (configuration not stated)	no (0)

We next turn to a different compound, shown below.
Could you please tell me the result logged for CCC(=O)OC1(c2ccccc2)CCN(CCC(=O)c2ccccc2)CC1C (configuration not stated) in this assay?
no (0)
